Molecular target: T1, human RANK-L, full length, membrane-bound, expressed on HEK293T cells (human, UniProt O14788 1-317)
T1 construct: whole, on cells; also called hRANK-L
T1 sequence (looked up): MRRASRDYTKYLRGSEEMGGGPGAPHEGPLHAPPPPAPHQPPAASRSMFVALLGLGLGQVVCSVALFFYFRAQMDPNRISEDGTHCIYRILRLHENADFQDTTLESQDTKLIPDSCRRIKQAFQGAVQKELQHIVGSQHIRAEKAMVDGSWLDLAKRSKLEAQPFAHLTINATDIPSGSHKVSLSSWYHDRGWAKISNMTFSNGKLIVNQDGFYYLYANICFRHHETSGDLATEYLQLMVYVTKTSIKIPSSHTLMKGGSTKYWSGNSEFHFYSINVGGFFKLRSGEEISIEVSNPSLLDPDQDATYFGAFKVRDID
Test: FACS, HEK293T with human RANK-L, 400 pM Nanobody
Method: Human embryonic kidney cells (HEK293T) were grown in Dulbecco's modified Eagles's medium supplemented with 10% fetal bovine serum (FBS), […] L-glutamine, 0.4 mM sodium pyruvate. […] After 48 hours, transfected cells were subjected to FACS analysis. […] Bound Nanobodies were detected by subsequent incubations of a primary mouse anti Myc antibody (30 min at 4° C. (2 μg/ml)) and a second incubation with goat anti mouse-Phycoerythrin (PE) (Jackson Laboratories) for another 30 min at 4° C. […]
If the reported PE mean fluorescence equals or exceeds 3000, assign true (1). If not, assign false (0).

Known results for binders:
binder="RANKL6 (VHH, not shown: c-myc and His6 tags) VHH: EVQLVESGGGLMQTGGSLRLSCAASGVTYSYYTASWFRQAPGKEREFVAAISPSGNTYYADSVKGRFTISRDNGKHTMYLQMNSLNPEDTAVYFCAIRATDSIYYASSYRHWGQGTQVTVSS" grouplabel="true (1)"
binder="RANKL13 (VHH, not shown: small tags and cut ends) VHH: EVQLVESGGGLVQAGGSLRLSCAASGRTFRSYPMGWFRQAPGKEREFVASITGSGGSTYYADSVKGRFTISRDNAKNTVYLQMNSLRPEDTAVYSCAAYIRPDTYLSRDYRKYDYWGQGTQVTVSS" grouplabel="true (1)"
binder="RANKL9 (VHH, not shown: c-myc and His6 tags) VHH: EVQLVESGGGLVQAGGSLRLTCAASGRTFRSYAMGWFRQAPGKEREFVAAINYSGGSTNYADSVKGRFTISRDNAKNTLYLQMNSLEPEDTAVYYCAAGSGYASLSYYSTERAYTYWGQGTQVTVSS" grouplabel="true (1)"

stdin: Has RANKL15 (VHH, not shown: small tags and cut ends) VHH: EVQLVESGGGLVQAGGSLRLSCAAAGGTFRNYVMGWFRQAPGKEREFVTAISTGGSWTGYVDSVKDRFTISRDNTKNTVYLQMASLKPEDTAVYYCAATTPATTYLPRSERQYDYWGQGTQVTVSS a recorded PE mean fluorescence greater than or equal to 3000?
stdout: false (0)

stdin: Has RANKL18 (VHH, not shown: small tags and cut ends) VHH: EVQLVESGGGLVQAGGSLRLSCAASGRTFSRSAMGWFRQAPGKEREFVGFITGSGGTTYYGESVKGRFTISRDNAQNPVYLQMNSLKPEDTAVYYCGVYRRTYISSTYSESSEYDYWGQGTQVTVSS a recorded PE mean fluorescence greater than or equal to 3000?
stdout: false (0)
